- SYSTEM_UNDER_TEST: isolated kinase domain of the human c-kit receptor (Homo sapiens (Human))
- Sequence (P10721 589-937): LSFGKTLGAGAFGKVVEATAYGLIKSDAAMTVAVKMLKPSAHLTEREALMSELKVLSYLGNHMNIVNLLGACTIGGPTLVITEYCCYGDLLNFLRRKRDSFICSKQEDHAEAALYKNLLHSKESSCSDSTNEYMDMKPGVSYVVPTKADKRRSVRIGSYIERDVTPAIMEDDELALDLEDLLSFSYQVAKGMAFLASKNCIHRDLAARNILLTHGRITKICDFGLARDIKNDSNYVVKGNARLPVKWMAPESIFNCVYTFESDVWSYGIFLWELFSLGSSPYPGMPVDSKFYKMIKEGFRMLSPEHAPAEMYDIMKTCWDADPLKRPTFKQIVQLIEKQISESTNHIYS
- EXPERIMENT_SUMMARY: c-Kit Fluorescence Polarization Kinase Assay
- MEASUREMENT_PARAMETERS: 1 nM c-kit, 50 uM ATP, 45 minutes at room temperature; uncertainty +10%
pIC50: −log10 of the molar value. Counter-ions that a name gives are not always drawn.
Reported pIC50 values for a set of compounds
ASSAY_READOUT: pIC50

>  <COMPOUND>
N#Cc1c[nH]c(C(=O)Nc2ccc(C3CCNCC3)cc2C2=CCCCC2)n1 [Compound 14, trifluoroacetic acid salt]

>  <SYSTEM_UNDER_TEST>
isolated kinase domain of the human c-kit receptor (Homo sapiens (Human))

>  <ASSAY_READOUT>
pIC50

>  <OBSERVED>
7.15

$$$$
>  <COMPOUND>
N#CCCN1CCC(c2ccc(NC(=O)c3nc(C#N)c[nH]3)c(C3=CCCCC3)c2)CC1 [Compound 27, trifluoroacetic acid salt]

>  <SYSTEM_UNDER_TEST>
isolated kinase domain of the human c-kit receptor (Homo sapiens (Human))

>  <ASSAY_READOUT>
pIC50

>  <OBSERVED>
7.10

$$$$
>  <COMPOUND>
N#Cc1c[nH]c(C(=O)Nc2ccc(C3CCS(=O)(=O)CC3)cc2C2=CCCCC2)n1

>  <SYSTEM_UNDER_TEST>
isolated kinase domain of the human c-kit receptor (Homo sapiens (Human))

>  <ASSAY_READOUT>
pIC50

>  <OBSERVED>
7.14

$$$$
>  <COMPOUND>
N#Cc1cnc(C(=O)Nc2ccc(C3CCN(C(=O)[C@H](O)CO)CC3)cc2C2=CCCCC2)[nH]1

>  <SYSTEM_UNDER_TEST>
isolated kinase domain of the human c-kit receptor (Homo sapiens (Human))

>  <ASSAY_READOUT>
pIC50

>  <OBSERVED>
8.10

$$$$
>  <COMPOUND>
CC(=O)N1CCC(c2ccc(NC(=O)c3nc(C#N)c[nH]3)c(C3=CCCCC3)c2)CC1

>  <SYSTEM_UNDER_TEST>
isolated kinase domain of the human c-kit receptor (Homo sapiens (Human))

>  <ASSAY_READOUT>
pIC50

>  <OBSERVED>
7.24

$$$$
>  <COMPOUND>
CN1CCN(c2ccc(NC(=O)c3ccc(C#N)o3)c(C3=CCCCC3)c2)CC1

>  <SYSTEM_UNDER_TEST>
isolated kinase domain of the human c-kit receptor (Homo sapiens (Human))

>  <ASSAY_READOUT>
pIC50

>  <OBSERVED>
6.82

$$$$
>  <COMPOUND>
CC(C)(N)CC(=O)N1CCC(c2ccc(NC(=O)c3nc(C#N)c[nH]3)c(C3=CCCCC3)c2)CC1 [Compound 48, trifluoroacetic acid salt]

>  <SYSTEM_UNDER_TEST>
isolated kinase domain of the human c-kit receptor (Homo sapiens (Human))

>  <ASSAY_READOUT>
pIC50

>  <OBSERVED>
8.30

$$$$
